Below: a set of entries, each annotated with reported IC50.
TARGET: KDR (Homo sapiens)
Sequence (P35968 20-1356): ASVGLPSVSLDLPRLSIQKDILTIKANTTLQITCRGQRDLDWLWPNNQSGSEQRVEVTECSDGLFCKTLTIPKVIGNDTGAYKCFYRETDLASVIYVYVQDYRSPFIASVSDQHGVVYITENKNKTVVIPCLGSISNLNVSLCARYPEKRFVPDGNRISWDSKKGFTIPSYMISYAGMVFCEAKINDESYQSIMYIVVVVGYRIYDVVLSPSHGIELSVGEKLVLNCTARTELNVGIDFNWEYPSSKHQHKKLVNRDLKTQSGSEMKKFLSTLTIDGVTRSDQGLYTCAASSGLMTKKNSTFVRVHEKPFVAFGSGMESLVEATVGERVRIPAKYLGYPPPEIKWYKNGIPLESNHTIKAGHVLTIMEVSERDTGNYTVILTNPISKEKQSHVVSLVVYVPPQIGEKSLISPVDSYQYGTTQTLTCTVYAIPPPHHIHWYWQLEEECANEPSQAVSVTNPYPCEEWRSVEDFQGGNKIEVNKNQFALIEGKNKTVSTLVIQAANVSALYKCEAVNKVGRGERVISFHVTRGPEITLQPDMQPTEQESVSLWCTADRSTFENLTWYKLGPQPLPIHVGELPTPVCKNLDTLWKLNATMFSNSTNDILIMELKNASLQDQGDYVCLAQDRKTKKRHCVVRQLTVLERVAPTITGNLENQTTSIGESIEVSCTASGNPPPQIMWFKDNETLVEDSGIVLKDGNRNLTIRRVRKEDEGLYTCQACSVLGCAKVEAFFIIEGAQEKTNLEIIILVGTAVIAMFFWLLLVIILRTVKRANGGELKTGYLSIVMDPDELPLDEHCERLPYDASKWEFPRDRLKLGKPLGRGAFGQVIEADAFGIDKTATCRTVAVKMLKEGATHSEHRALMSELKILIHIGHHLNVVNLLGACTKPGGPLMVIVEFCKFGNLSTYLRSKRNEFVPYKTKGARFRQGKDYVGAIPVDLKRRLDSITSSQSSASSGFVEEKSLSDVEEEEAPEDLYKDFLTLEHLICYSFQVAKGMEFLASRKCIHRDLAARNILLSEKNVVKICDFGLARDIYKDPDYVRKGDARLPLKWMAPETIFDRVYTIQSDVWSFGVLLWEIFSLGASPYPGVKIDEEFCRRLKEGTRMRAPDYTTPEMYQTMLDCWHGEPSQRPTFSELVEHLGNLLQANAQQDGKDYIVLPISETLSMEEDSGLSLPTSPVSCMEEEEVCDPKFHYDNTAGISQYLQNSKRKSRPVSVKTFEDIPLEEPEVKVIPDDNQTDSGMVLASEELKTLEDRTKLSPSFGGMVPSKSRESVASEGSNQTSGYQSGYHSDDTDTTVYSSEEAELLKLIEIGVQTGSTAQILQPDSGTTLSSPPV
TEST: KDR autophosphorylation ELISA in HUVEC cells
Assay type: cell-based
Design: endogenous in cells; host or cells: HUVEC (Lonza #C2519A)
CONDITIONS: cellular activity, VEGF165-stimulated, phospho-KDR ELISA

Known IC50 results, listed for orientation:
MOLECULE | RESULT
O=C(Nc1ccc(F)cc1)C1(C(=O)Nc2ccc(Oc3ccnc4cc(-c5cnn(C(F)F)c5)ccc34)cc2)CC1 [Compound 13] | ≤ 10 nM
O=C(Nc1ccc(F)cc1)C1(C(=O)Nc2ccc(Oc3ccnc4cc(-c5ccc(O)nc5)ccc34)cc2)CC1 [Compound 51] | ≤ 10 nM
O=C(Nc1ccc(F)cc1)C1(C(=O)Nc2ccc(Oc3ccnc4cc(-c5ccc(F)nc5)ccc34)cc2)CC1 [Compound 41] | 10 to 100 nM

q: Determine from records and report IC50 for O=C(Nc1ccc(F)cc1)C1(C(=O)Nc2ccc(Oc3ccnc4cc(-c5cnn6c5CCC6)ccc34)cc2)CC1 [Compound 29]
a: 10 to 100 nM

###

TARGET: AXL (Homo sapiens)
Construct: endogenous in cells
Sequence (P30530 26-894): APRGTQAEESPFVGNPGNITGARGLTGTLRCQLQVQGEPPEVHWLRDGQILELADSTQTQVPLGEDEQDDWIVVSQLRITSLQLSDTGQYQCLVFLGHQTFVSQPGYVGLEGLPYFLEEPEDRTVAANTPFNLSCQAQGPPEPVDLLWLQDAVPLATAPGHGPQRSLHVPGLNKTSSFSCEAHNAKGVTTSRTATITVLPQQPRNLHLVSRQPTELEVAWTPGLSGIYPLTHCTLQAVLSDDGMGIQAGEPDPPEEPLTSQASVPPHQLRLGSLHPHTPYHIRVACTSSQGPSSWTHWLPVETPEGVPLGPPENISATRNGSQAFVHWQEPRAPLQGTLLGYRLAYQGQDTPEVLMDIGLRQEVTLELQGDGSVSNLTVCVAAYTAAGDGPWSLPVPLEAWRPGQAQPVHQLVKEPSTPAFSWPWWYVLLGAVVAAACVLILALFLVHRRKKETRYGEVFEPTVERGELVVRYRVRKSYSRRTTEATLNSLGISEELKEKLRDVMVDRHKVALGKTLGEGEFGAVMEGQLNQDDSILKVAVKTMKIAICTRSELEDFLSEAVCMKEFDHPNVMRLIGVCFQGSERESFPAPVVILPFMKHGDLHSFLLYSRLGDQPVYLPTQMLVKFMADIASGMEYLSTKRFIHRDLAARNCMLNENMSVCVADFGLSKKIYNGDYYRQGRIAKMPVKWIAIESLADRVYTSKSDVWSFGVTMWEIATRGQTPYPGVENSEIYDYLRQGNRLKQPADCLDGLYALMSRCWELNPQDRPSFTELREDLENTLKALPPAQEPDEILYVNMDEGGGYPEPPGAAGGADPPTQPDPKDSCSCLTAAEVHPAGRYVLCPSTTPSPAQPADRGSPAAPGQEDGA
TEST: AXL autophosphorylation ELISA in A-172 cells
CONDITIONS: cellular activity, Gas6-stimulated, phospho-AXL ELISA
ATTRIBUTE MEASURED: IC50

Known IC50 results, listed for orientation:
SMI | RESULT
O=C(Nc1ccc(F)cc1)C1(C(=O)Nc2ccc(Oc3ccnc4cc(-c5ccncn5)ccc34)cc2)CC1 | 10 to 100 nM
O=C(Nc1ccc(F)cc1)C1(C(=O)Nc2ccc(Oc3ccnc4cc(-c5cnc6[nH]ncc6c5)ccc34)cc2)CC1 | 10 to 100 nM
Cn1ncc(-c2ccc3c(Oc4ccc(NC(=O)C5(C(=O)Nc6ccc(F)cc6)CC5)cc4)ccnc3c2)n1 | 10 to 100 nM
O=C(Nc1ccc(F)cc1)C1(C(=O)Nc2ccc(Oc3ccnc4cc(-c5cnn(CC(F)F)c5)ccc34)cc2)CC1 | ≤ 10 nM
O=C(Nc1ccc(F)cc1)C1(C(=O)Nc2ccc(Oc3ccnc4cc(-c5cccnc5O)ccc34)cc2)CC1 | 100 to 300 nM
Cn1cnc(-c2ccc3c(Oc4ccc(NC(=O)C5(C(=O)Nc6ccc(F)cc6)CC5)cc4)ccnc3c2)c1 | ≤ 10 nM

Here is another molecule to look at.
q: Determine from records and report IC50 for O=C(Nc1ccc(F)cc1)C1(C(=O)Nc2ccc(Oc3ccnc4cc(-c5cnn(CF)c5)ccc34)cc2)CC1
a: ≤ 10 nM

###

TARGET: KDR (Homo sapiens)
TEST: KDR autophosphorylation ELISA in HUVEC cells
Type: cell-based
Set-up: endogenous in cells; host or cells: HUVEC (Lonza #C2519A)
CONDITIONS: cellular activity, VEGF165-stimulated, phospho-KDR ELISA
ATTRIBUTE MEASURED: IC50

Known IC50 results, listed for orientation:
COMPOUND | TARGET | IC50
O=C(Nc1ccc(F)cc1)C1(C(=O)Nc2ccc(Oc3ccnc4cc(-c5ncco5)ccc34)cc2)CC1 | KDR (Homo sapiens) | 0.01 to 0.1 µM
O=C(Nc1ccc(F)cc1)C1(C(=O)Nc2ccc(Oc3ccnc4cc(-c5ccncn5)ccc34)cc2)CC1 | KDR (Homo sapiens) | ≤ 0.01 µM
Cc1cc(-c2ccc3c(Oc4ccc(NC(=O)C5(C(=O)Nc6ccc(F)cc6)CC5)cc4)ccnc3c2)nn1C | KDR (Homo sapiens) | 0.01 to 0.1 µM
Cc1cc2c(Oc3ccc(NC(=O)C4(C(=O)Nc5ccc(F)cc5)CC4)cc3F)ccnc2cc1-c1ncc[nH]1 | KDR (Homo sapiens) | 0.01 to 0.1 µM
Cc1cc2c(Oc3ccc(NC(=O)C4(C(=O)Nc5ccc(F)cc5)CC4)cc3)ccnc2cc1-c1ccn(C)n1 | KDR (Homo sapiens) | 0.01 to 0.1 µM
Cc1cc2c(Oc3ccc(NC(=O)C4(C(=O)Nc5ccc(F)cc5)CC4)cc3)ccnc2cc1-c1cnn(C)c1 | KDR (Homo sapiens) | 0.01 to 0.1 µM
O=C(Nc1ccc(F)cc1)C1(C(=O)Nc2ccc(Oc3ccnc4cc(-c5ccccc5)ccc34)cc2)CC1 | KDR (Homo sapiens) | 0.01 to 0.1 µM
O=C(Nc1ccc(F)cc1)C1(C(=O)Nc2ccc(Oc3ccnc4cc(-c5cnn[nH]5)ccc34)cc2)CC1 | KDR (Homo sapiens) | > 0.3 µM

q: Determine from records and report IC50 for Cc1cc2c(Oc3ccc(NC(=O)C4(C(=O)Nc5ccc(F)cc5)CC4)cc3)ccnc2cc1-c1cc[nH]n1
a: 0.01 to 0.1 µM

q: Determine from records and report IC50 for C#Cc1ccc2c(Oc3ccc(NC(=O)C4(C(=O)Nc5ccc(F)cc5)CC4)cc3)ccnc2c1
a: 0.1 to 0.3 µM

q: Determine from records and report IC50 for O=C(Nc1ccc(F)cc1)C1(C(=O)Nc2ccc(Oc3ccnc4cc(-c5cncs5)ccc34)cc2)CC1
a: ≤ 0.01 µM

###

TARGET: Mer (Homo sapiens)
Sequence (Q12866 21-999): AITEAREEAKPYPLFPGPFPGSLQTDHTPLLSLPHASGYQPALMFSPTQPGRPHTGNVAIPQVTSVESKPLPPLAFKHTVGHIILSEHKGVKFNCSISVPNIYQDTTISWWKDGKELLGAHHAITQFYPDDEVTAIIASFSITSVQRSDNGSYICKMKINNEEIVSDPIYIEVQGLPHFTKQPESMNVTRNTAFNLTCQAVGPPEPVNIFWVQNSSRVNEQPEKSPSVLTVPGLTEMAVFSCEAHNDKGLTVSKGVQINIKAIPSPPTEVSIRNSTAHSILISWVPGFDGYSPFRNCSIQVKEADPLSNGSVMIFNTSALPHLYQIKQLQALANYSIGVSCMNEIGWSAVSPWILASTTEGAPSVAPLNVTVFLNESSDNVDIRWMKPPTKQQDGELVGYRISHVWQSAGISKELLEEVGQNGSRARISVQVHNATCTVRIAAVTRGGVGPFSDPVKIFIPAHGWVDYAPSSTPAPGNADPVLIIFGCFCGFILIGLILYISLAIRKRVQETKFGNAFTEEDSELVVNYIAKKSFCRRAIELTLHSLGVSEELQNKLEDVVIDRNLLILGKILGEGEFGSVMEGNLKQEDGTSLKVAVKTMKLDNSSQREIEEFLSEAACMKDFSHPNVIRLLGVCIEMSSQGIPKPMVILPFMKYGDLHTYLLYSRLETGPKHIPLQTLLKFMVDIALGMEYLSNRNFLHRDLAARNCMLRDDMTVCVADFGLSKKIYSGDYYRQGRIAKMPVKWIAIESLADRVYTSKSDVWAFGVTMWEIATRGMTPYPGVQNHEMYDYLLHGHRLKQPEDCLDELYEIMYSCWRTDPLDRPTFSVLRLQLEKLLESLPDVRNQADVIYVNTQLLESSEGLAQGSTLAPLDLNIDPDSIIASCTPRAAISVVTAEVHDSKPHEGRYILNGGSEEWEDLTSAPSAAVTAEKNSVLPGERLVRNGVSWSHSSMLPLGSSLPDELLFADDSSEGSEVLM
TEST: Mer autophosphorylation ELISA in transient transfected 293A cells
CONDITIONS: cellular activity; MERTK-transfected 293A cells, phospho-Mer ELISA
pIC50: −log10 of the molar value.
ATTRIBUTE MEASURED: pIC50

Known pIC50 results, listed for orientation:
SMI | TARGET | RESULT
O=C(Nc1ccc(F)cc1)C1(C(=O)Nc2ccc(Oc3ccnc4cc(-c5ncc[nH]5)ccc34)cc2)CC1 | Mer (Homo sapiens) | 7.00 to 8.00
CCn1cc(-c2ccc3c(Oc4ccc(NC(=O)C5(C(=O)Nc6ccc(F)cc6)CC5)cc4)ccnc3c2)cn1 | Mer (Homo sapiens) | ≥ 8.00
O=C(Nc1ccc(F)cc1)C1(C(=O)Nc2ccc(Oc3ccnc4cc(-c5cc6ccccn6n5)ccc34)cc2)CC1 | Mer (Homo sapiens) | 6.52 to 7.00
CC(C)n1cc(-c2ccc3c(Oc4ccc(NC(=O)C5(C(=O)Nc6ccc(F)cc6)CC5)cc4)ccnc3c2)cn1 | Mer (Homo sapiens) | 7.00 to 8.00
O=C(Nc1ccc(F)cc1)C1(C(=O)Nc2ccc(Oc3ccnc4cc(-c5ccn(CF)n5)ccc34)cc2)CC1 | Mer (Homo sapiens) | 7.00 to 8.00

q: Consider the molecule Cc1cncc(-c2ccc3c(Oc4ccc(NC(=O)C5(C(=O)Nc6ccc(F)cc6)CC5)cc4)ccnc3c2)c1 tested on Mer (Homo sapiens); state its pIC50.
a: 6.52 to 7.00

q: Consider the molecule Cn1cc(-c2ccc3c(Oc4ccc(NC(=O)C5(C(=O)Nc6ccc(F)cc6)CC5)cc4)ccnc3c2)cn1 tested on Mer (Homo sapiens); state its pIC50.
a: ≥ 8.00

q: Consider the molecule Cc1cc(-c2ccc3c(Oc4ccc(NC(=O)C5(C(=O)Nc6ccc(F)cc6)CC5)cc4)ccnc3c2)ccn1 tested on Mer (Homo sapiens); state its pIC50.
a: 7.00 to 8.00

q: Consider the molecule COc1cncc(-c2ccc3c(Oc4ccc(NC(=O)C5(C(=O)Nc6ccc(F)cc6)CC5)cc4)ccnc3c2)c1 tested on Mer (Homo sapiens); state its pIC50.
a: 7.00 to 8.00
